Provenance of the data: paper PMC12416549

Molecular target: T1, TNFR1 (Homo sapiens, UniProt P19438)
T1 chain: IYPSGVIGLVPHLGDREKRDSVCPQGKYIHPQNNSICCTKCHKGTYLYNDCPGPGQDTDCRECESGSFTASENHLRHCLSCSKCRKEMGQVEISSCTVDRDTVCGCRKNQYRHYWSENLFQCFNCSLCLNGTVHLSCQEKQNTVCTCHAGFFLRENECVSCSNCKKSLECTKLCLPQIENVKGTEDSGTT
Assay: yeast display SC50
measured property: apparent Kd (screen) (nM)

(1) A88W (designed binder) MTLQELLREEALRRAEAEAFRYALELLAEKFPEQKEYLLDLAEEIESQIRSLSGVDVEDVRKFLDKEWAWVKELLAEHPAELAEVEAWRAARLAELRAEVEAKVAA
(2) V71D (designed binder) MTLQELLREEALRRAEAEAFRYALELLAEKFPEQKEYLLDLAEEIESQIRSLSGVDVEDVRKFLDKEWAWDKELLAEHPAELAEVEAARAARLAELRAEVEAKVAA
INPUT: Two entries are listed, 1 and 2 . Which one carries the higher apparent Kd (screen)? Lab log: write the label of the selected item as the result.
OUTPUT: 2
(2: 29.5 nM, 1: 0.49 nM)

(P) D56Y (designed binder) MTLQELLREEALRRAEAEAFRYALELLAEKFPEQKEYLLDLAEEIESQIRSLSGVYVEDVRKFLDKEWAWVKELLAEHPAELAEVEAARAARLAELRAEVEAKVAA
(Q) E10A (designed binder) MTLQELLREAALRRAEAEAFRYALELLAEKFPEQKEYLLDLAEEIESQIRSLSGVDVEDVRKFLDKEWAWVKELLAEHPAELAEVEAARAARLAELRAEVEAKVAA
INPUT: Pick one: P or Q . Which one has the lower reported apparent Kd (screen)? Lab log: write the label of the selected item as the result.
OUTPUT: P
